biological target: feline FcRn (FCN-F82W3, Acrobiosystems) (feline); experiment: SPR Carterra, IgG coupled, pH 6.0
Measured Attribute: koff (s⁻¹)
API: value field is a number in s⁻¹; no unit string.

# count of solved cases: 2
• anti-NGF feline IgG1a, Fc variant L309E (antibody, part only; not given: anti-NGF variable domains, light chain, not shown: another chain or arm of the molecule; small tags and cut ends) Fc: PPEMLGGPSIFIFPPKPKDTLSISRTPEVTCLVVDLGPDDSDVQITWFVDNTQVYTAKTSPREEQFNSTYRVVSVLPIEHQDWLKGKEFKCKVNSKSLPSPIERTISKAKGQPHEPQVYVLPPAQEELSRNKVSVTCLIKSFHPPDIAVEWEITGQPEPENNYRTTPPQLDSDGTYFVYSKLSVDRSHWQRGNTYTCSVSHEALHSHHTQKSLTQSPGK = 0.0415
• anti-NGF feline IgG1a, Fc variant S428L, I377V (antibody, part only; not given: anti-NGF variable domains, not shown: another chain or arm of the molecule; small tags and cut ends) Fc: PPEMLGGPSIFIFPPKPKDTLSISRTPEVTCLVVDLGPDDSDVQITWFVDNTQVYTAKTSPREEQFNSTYRVVSVLPILHQDWLKGKEFKCKVNSKSLPSPIERTISKAKGQPHEPQVYVLPPAQEELSRNKVSVTCLIKSFHPPDVAVEWEITGQPEPENNYRTTPPQLDSDGTYFVYSKLSVDRSHWQRGNTYTCSVLHEALHSHHTQKSLTQSPGK = 0.0183

// moving on: another record for koff
Exercise: Recall and state the measured koff for anti-NGF feline IgG1a, Fc variant R334D, S428R (antibody, part only; not given: anti-NGF variable domains, light chain, not shown: another chain or arm of the molecule; small tags and cut ends) Fc: PPEMLGGPSIFIFPPKPKDTLSISRTPEVTCLVVDLGPDDSDVQITWFVDNTQVYTAKTSPREEQFNSTYRVVSVLPILHQDWLKGKEFKCKVNSKSLPSPIEDTISKAKGQPHEPQVYVLPPAQEELSRNKVSVTCLIKSFHPPDIAVEWEITGQPEPENNYRTTPPQLDSDGTYFVYSKLSVDRSHWQRGNTYTCSVRHEALHSHHTQKSLTQSPGK .
Solution: 0.0493
